# Target desc: ENL YEATS domain (association with H3K27cr) (Homo sapiens, UniProt Q03111)
# Sequence (Q03111 1-148): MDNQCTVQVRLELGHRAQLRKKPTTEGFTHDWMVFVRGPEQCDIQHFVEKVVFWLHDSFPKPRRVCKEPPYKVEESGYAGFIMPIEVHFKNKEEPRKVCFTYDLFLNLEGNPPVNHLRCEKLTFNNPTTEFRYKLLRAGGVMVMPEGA
# Experiment notes: biochemical
# Assay conditions: ENL (YEATS)-H3K27cr HTRF (IC50, μM), Table 1
Measured metric: IC50 (µM)

Past entries and their recorded results:
| Compound | Unit | IC50 |
| --- | --- | --- |
| O=C(NCc1cccnc1)c1ccc2nc(-c3ccccc3)cn2c1 [Compound 9] | µM | 6.8 |
| O=C(NC1Cc2ccccc21)c1ccc2nc(-c3ccccc3)cn2c1 (stereo not drawn) [Compound 80] | µM | 3.03 |

(A) COc1ccc(-c2cn3cc(C(=O)NC4CCC4)ccc3n2)cc1 [Compound 78]
(B) O=C(NCC1CC1)c1ccc2nc(-c3ccccc3)cn2c1 [Compound 29]
(C) CC(C)NC(=O)c1ccc2nc(-c3cccc(NS(=O)(=O)NCCc4ccc(S(N)(=O)=O)cc4)c3)cn2c1 [Compound 48]
Sort these compounds on IC50 so the largest reading comes first. Response format: the labels, sorted as the prompt asks. B, A, C
